assay: refractive index (Na D-line) (dimensionless); settings: 323.15 K; 81.5 kPa; Liquid; Standard Abbe refractometry
refractive index values for the compounds below.
# output: bare number, no unit

Example entries begin here.
compound="Clc1ccccc1 [chlorobenzene]" value_reported=1.50781
compound="c1ccccc1 [benzene]" value_reported=1.48264
compound="Brc1ccccc1 [bromobenzene]" value_reported=1.54319
compound="O=[N+]([O-])c1ccccc1 [nitrobenzene]" value_reported=1.53795

Now look at this entry.
Ask: What value of measured refractive index is listed for ClCCCl [1,2-dichloroethane] ?
Result: 1.42897

---

settings: 293.15 K; 81.5 kPa; Liquid; Vibrating tube method
readout: mass density (kg/m3)
Give the value in kg/m3 but do not write kg/m3 after it.

Example entries begin here.
structure_smiles=Clc1ccccc1 value_reported=1106.49
structure_smiles=O=[N+]([O-])c1ccccc1 value_reported=1203.05
structure_smiles=c1ccccc1 value_reported=878.87
structure_smiles=Brc1ccccc1 value_reported=1495.52

Now look at this entry.
Ask: What value of measured mass density is listed for ClCCCl ?
Result: 1252.82

---

test: refractive index (Na D-line) (dimensionless); settings: 303.15 K; 81.5 kPa; Liquid; Standard Abbe refractometry
± gives the expanded uncertainty stated by the source.
readout: refractive index

structure_smiles=ClCCCl value_reported="1.43948 ± 0.01"
structure_smiles=Clc1ccccc1 value_reported="1.51902 ± 0.01"
structure_smiles=O=[N+]([O-])c1ccccc1 value_reported="1.54763 ± 0.01"
structure_smiles=c1ccccc1 value_reported="1.49517 ± 0.01"

Now look at this entry.
Ask: What value of measured refractive index is listed for Brc1ccccc1 ?
Result: 1.55442 ± 0.01

---

test: refractive index (Na D-line) (dimensionless); settings: 293.15 K; 81.5 kPa; Liquid; Standard Abbe refractometry
refractive index values for the compounds below.
# output: bare number, no unit

Example entries begin here.
compound="Brc1ccccc1 [bromobenzene]" value_reported=1.55981
compound="O=[N+]([O-])c1ccccc1 [nitrobenzene]" value_reported=1.55241
compound="Clc1ccccc1 [chlorobenzene]" value_reported=1.52455
compound="c1ccccc1 [benzene]" value_reported=1.50118

Now look at this entry.
Ask: What value of measured refractive index is listed for ClCCCl [1,2-dichloroethane] ?
Result: 1.44472

---

mass density values for the compounds below.
settings: 333.15 K; 81.5 kPa; Liquid; Vibrating tube method
Give the value in kg/m3 but do not write kg/m3 after it.

Example entries begin here.
structure_smiles=c1ccccc1 readout="mass density" value_reported=835.71
structure_smiles=O=[N+]([O-])c1ccccc1 readout="mass density" value_reported=1163.32
structure_smiles=ClCCCl readout="mass density" value_reported=1193.61
structure_smiles=Brc1ccccc1 readout="mass density" value_reported=1441.22

Now look at this entry.
Ask: What value of measured mass density is listed for Clc1ccccc1 ?
Result: 1063.01

---

refractive index values for the compounds below.
test: refractive index (Na D-line) (dimensionless); conditions: 313.15 K; 81.5 kPa; Liquid; Standard Abbe refractometry
# output: bare number, no unit

structure_smiles=O=[N+]([O-])c1ccccc1 readout="refractive index" value_reported=1.54288
structure_smiles=c1ccccc1 readout="refractive index" value_reported=1.4885
structure_smiles=ClCCCl readout="refractive index" value_reported=1.43423
structure_smiles=Clc1ccccc1 readout="refractive index" value_reported=1.51346

Now look at this entry.
Ask: What value of measured refractive index is listed for Brc1ccccc1 ?
Result: 1.5489
